Assay: Cmax in Sprague-Dawley rat at 10 mg/kg, po measured after 0.25 to 72 hrs by LC/QTOF/MS method
Assay type: ADME, organism-based
Parameters: route oral, time upper 72 hrs, time lower 0.25 hrs, dose 10 mg/kg
Details: in vivo
Measure: Cmax (ng/mL)

1) COC(=O)C[C@H]1[C@]2(C)C3=C(C)[C@H](c4ccoc4)C[C@H]3O[C@@H]2[C@@H]2OC(=O)[C@]3(C)C=CC(=O)[C@@]1(C)[C@@H]23 [NIMBOLIDE]
15.3

###

Tested on: MCF7
Experiment: Antiproliferative activity against human MCF7 cells incubated for 24 hrs by MTT assay
Format: functional, cell-based
Conditions: MCF7, 24 h
Measure: IC50 (µM)

1) COC(=O)C[C@H]1[C@]2(C)C3=C(C)[C@H](c4ccoc4)C[C@H]3O[C@@H]2[C@@H]2OC(=O)[C@]3(C)C=CC(=O)[C@@]1(C)[C@@H]23 [NIMBOLIDE]
4

###

Listing: IC50 of selected compounds
Test system: HCT-116
Assay: Cytotoxicity against human HCT-116 cells by MTT assay
Type: functional, cell-based
Measure: IC50 (nM)

1) CC(C)[C@]12O[C@H]1[C@@H]1O[C@]13[C@]1(O[C@H]1C[C@H]1C4=C(C(=O)OC4)[C@@H](O)C[C@@]13C)[C@@H]2O [TRIPDIOLIDE]
730
2) CC(C)(O)[C@]12O[C@H]1[C@@H]1O[C@]13[C@]1(O[C@H]1C[C@H]1C4=C(CC[C@@]13C)C(=O)OC4)[C@@H]2O
390

###

System: P388
Test: Antiproliferative activity against mouse P388 cells
Format: functional, cell-based
pIC50: −log10 of the molar value.
Listed below: pIC50 values for each entry.
Measure: pIC50

1. C=C1[C@@H](O)C[C@H]2C(C)(C)C[C@H](Cl)C[C@]2(C)[C@H]1C[C@H](O)[C@H]1CC(=O)NC1=O [CHLOROLISSOCLIMIDE]
8.40
2. CC(=O)OC1OC[C@@]23[C@H]4C(=O)C(OC(C)=O)[C@@]5(C)[C@H](c6ccoc6)C[C@H]6O[C@]65[C@]4(C)[C@H](O)C[C@H]2[C@]1(C)[C@H](OC(C)=O)C[C@@H]3O (some centres undefined)
7.80
3. CC(C)[C@H]1OC(=O)C=C2C1=C[C@H]1OC(=O)[C@@]3(C)CCC[C@@]2(C)[C@@H]13 [NAGILACTONE F]
6.55
4. C=C1[C@@H](O)C[C@H]2C(C)(C)[C@@H](Cl)[C@H](Cl)C[C@]2(C)[C@H]1C[C@H](O)[C@H]1CC(=O)NC1=O [DICHLOROLISSOCLIMIDE]
8.70
5. C=C[C@H]1OC(=O)C=C2C1=C[C@H]1OC(=O)[C@@]3(C)CCC[C@@]2(C)[C@@H]13
6.80
6. CC(=O)O[C@@H]1C[C@H](O)[C@@]23COC(O)[C@]1(C)[C@@H]2C[C@@H](O)[C@]1(C)[C@@H]3C(=O)C(O)[C@@]2(C)[C@H](c3ccoc3)C[C@H]3O[C@@]312 (some centres undefined)
8.42
7. CC(=O)O[C@@H]1C[C@H](O)[C@@]23COC(O)[C@]1(C)[C@@H]2C[C@@H](O)[C@@]1(C)[C@@H]2C(=O)C[C@@H](c4ccoc4)[C@]2(C)CC(=O)[C@@H]13 (some centres undefined)
4.24
8. C=C1CC[C@@H]2[C@](C)(CO)[C@H](O)CC[C@@]2(C)[C@@H]1C/C=C1/C(=O)OC[C@H]1O [ANDROGRAPHOLIDE]
5.54
